Biological target: NL20 human bronchial epithelial cells expressing human Z-AAT (Homo sapiens, UniProt P01009, E366K)
Construct: doxycycline added with compounds)
Sequence (P01009 25-418 E366K): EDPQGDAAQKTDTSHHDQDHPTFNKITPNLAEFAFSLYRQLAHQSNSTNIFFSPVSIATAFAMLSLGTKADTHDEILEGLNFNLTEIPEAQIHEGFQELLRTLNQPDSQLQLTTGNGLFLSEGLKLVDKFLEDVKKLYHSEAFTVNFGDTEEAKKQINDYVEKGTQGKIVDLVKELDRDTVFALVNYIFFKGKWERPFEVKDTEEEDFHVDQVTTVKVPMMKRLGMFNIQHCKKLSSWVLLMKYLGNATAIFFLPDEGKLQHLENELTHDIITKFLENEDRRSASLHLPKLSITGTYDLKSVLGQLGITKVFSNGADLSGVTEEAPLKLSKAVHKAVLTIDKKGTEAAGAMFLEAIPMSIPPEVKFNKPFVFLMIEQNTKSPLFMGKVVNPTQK
Assay: AAT Function Assay (MSD Assay NL20-SI Cell Line)
Conditions: read-out: NL20 Functional EC50
pEC50: −log10 of the molar value.
EXPERIMENTAL_ENDPOINT: pEC50

Sample records with pEC50:
molecule=COCC(C)(C)c1c(-c2ccc(C(=O)O)cc2)c2c(O)cc(F)cc2n1-c1ccc(F)cc1OC reported_measurement="5.70 to 6.30"
molecule="COC1CC(C)(c2c(-c3ccc(C(=O)O)cc3)c3c(O)cc(F)cc3n2-c2ccc(F)c(C)c2)C1 (stereo not drawn)" reported_measurement="> 6.30"
molecule=COCC1(c2c(-c3ccc(C(=O)O)cc3)c3c(O)cc(F)cc3n2-c2ccc(F)c(F)c2)CCC1 reported_measurement="> 6.30"

Your task in this section: give pEC50 for each listed record.
1. Cc1ccc2c(c1O)c(-c1ccc(C(=O)O)cc1)c(C(C)(C)CC#N)n2-c1ccc(F)c(F)c1
2. Cc1cc(-n2c(C3CCOCC3)c(-c3ccc(C(=O)O)cc3)c3c(O)cccc32)ccc1F
3. Cc1cc(-n2c(C(C)C)c(CCC(=O)O)c3cc(F)ccc32)ccc1F

Reply:
1: 5.70 to 6.30; 2: > 6.30; 3: < 5.70

Your task in this section: give pEC50 for each listed record.
1. CC(C)(CO)c1c(-c2ccc(C(=O)O)cc2)c2c(O)cc(F)cc2n1-c1ccc(F)cc1
2. CC(C)c1c(-c2ccc(C(=O)O)cc2)c2c(O)c(Cl)ncc2n1-c1ccc(F)cc1
3. Cc1cc(-n2c(C(C)C)c(C3CC4(CC(C(=O)O)C4)C3)c3c(O)cc(F)cc32)ccc1F (stereo not drawn)
4. Cc1cc(-n2c(C3CCOCC3)c(C3CC4(CC(C(=O)O)C4)C3)c3cc(F)ccc32)ccc1F (single isomer, unassigned) [Compound W17]
5. O=C(O)c1ccc(-c2c(C3CCOCC3)n(-c3ccc(F)cc3)c3cc(F)cc(O)c23)cc1F
6. Cc1cc(-n2c(CC(C)(C)O)c([C@H]3C[C@@H](C(=O)O)C3)c3c(O)cccc32)ccc1F

Reply:
1. 5.70 to 6.30
2. < 5.70
3. 5.70 to 6.30
4. < 5.70
5. > 6.30
6. < 5.70

Every entry's value here was drawn from patent US20230159502A1.
